tested on: Mus musculus; test: Body weight change of test animals to that of control was determined after injection at 3.75 mg/kg intraperitoneally in CD2F1 mice; assay type: functional; conditions: route intraperitoneal
reported.property: T-C (g)
Report as a plain number; the unit g is understood.

Prompt: For the compound shown here, COc1ccc2c(c1)CCc1c(COC(=O)NC(C)C)c(COC(=O)NC(C)C)c(C)n1-2 , give the reported T-C.
Completion: -0.8

Prompt: What value of T-C has been recorded for this entry: Cc1c(COC(=O)NC(C)C)c(COC(=O)NC(C)C)c2n1-c1ccccc1CC2
Completion: -3.6

Prompt: // T-C lookup, key: COc1ccc2c(c1)CCn1cc(COC(=O)NC(C)C)c(COC(=O)NC(C)C)c1-2
Completion: -3.4

Prompt: Query: T-C; subject: CNC(=O)OCc1c(COC(=O)NC)c2n(c1C)-c1ccc(OC)cc1CCC2
Completion: -1.6
